Every entry's value here was drawn from ChEMBL document CHEMBL1141031.

target: Gamma-secretase; experiment: Inhibition of human gamma secretase assessed as effect on C100Flag substrate cleavage
Reported endpoint: pIC50
Kindly note that pIC50 refers to -log10 of the concentration in mol/L and answer with the value alone.

{"columns": ["Compound", "Reported endpoint", "Reported measurement"],
 "data": [
  ["COC(=O)[C@H](Cc1ccccc1)NC(=O)[C@H](CC(C)C)NC(=O)[C@H](Cc1ccccc1)C[C@@H](O)[C@H](Cc1ccc(C(=O)c2ccccc2)cc1)NC(=O)OC(C)(C)C", "pIC50", 9.15]
]}

Continue with the compound presented below.
Exercise: I would be grateful if you could share the reported pIC50 for CC(C)C[C@H](NC(=O)[C@H](Cc1ccccc1)C[C@@H](O)[C@H](Cc1ccc(C(=O)c2ccccc2)cc1)NC(=O)OC(C)(C)C)C(=O)N[C@@H](Cc1ccccc1)C(=O)NCCCCCNC(=O)CCCCC1SC[C@H]2NC(=O)N[C@@H]12 (some centres not stated) .
Solution: 9.22
